The measurements presented in this section are drawn from paper PMC8508980.

Test system: MDA-MB-435
EXPERIMENT DESCRIPTION: NCI 60 cell line screen
Type: cell-based
CONDITION LABEL: Homo sapiens; MDA-MB-435, Melanoma; read-out: Percent growth
Values of activity at 10 µM strictly less than 90% map to 1 (yes), and values of at least 90% map to 0 (no).

compound="O=S(=O)(NCCCNc1nccc(-n2cnc3ccccc32)n1)c1ccc(F)cc1 [12i]" system_under_test=MDA-MB-435 cat="1 (yes)"
compound="Cc1ccc(S(=O)(=O)NCCNc2nccc(-n3cnc4ccccc43)n2)cc1 [12g]" system_under_test=MDA-MB-435 cat="1 (yes)"
compound="COc1ccc(S(=O)(=O)NCCNc2nccc(-n3cnc4ccccc43)n2)cc1 [12f]" system_under_test=MDA-MB-435 cat="0 (no)"
compound="O=S(=O)(NCCNc1nccc(-n2cnc3ccccc32)n1)c1ccccc1 [12a]" system_under_test=MDA-MB-435 cat="0 (no)"

## Task Lab note: confirm whether the reported activity at 10 µM for this compound is below 90%, equality not counting. compound: COc1ccc(S(=O)(=O)NCCCNc2nccc(-n3cnc4ccccc43)n2)cc1 [12m]
## Result 0 (no)

## Task Lab note: confirm whether the reported activity at 10 µM for this compound is below 90%, equality not counting. compound: O=S(=O)(NCCCNc1nccc(-n2cnc3ccccc32)n1)c1cccc2ccccc12 [12n]
## Result 0 (no)

## Task Lab note: confirm whether the reported activity at 10 µM for this compound is below 90%, equality not counting. compound: O=S(=O)(NCCCNc1nccc(-n2cnc3ccccc32)n1)c1ccccc1 [12h]
## Result 0 (no)

## Task Lab note: confirm whether the reported activity at 10 µM for this compound is below 90%, equality not counting. compound: O=S(=O)(NCCCNc1nccc(-n2cnc3ccccc32)n1)c1ccc(C(F)(F)F)cc1 [12l]
## Result 1 (yes)

---

System: RXF 393
EXPERIMENT DESCRIPTION: NCI 60 cell line screen
Format: cell-based, human
CONDITION LABEL: Homo sapiens; RXF 393, Renal Cancer; read-out: Percent growth
MEASURED QUANTITY: activity at 10 µM (%)
One number for each entry, in %.

Look over these answered cases.
compound="O=S(=O)(NCCNc1nccc(-n2cnc3ccccc32)n1)c1ccc(C(F)(F)F)cc1 [12e]" measured_result=38.2
compound="COc1ccc(S(=O)(=O)NCCCNc2nccc(-n3cnc4ccccc43)n2)cc1 [12m]" measured_result=80.6
compound="O=S(=O)(NCCCNc1nccc(-n2cnc3ccccc32)n1)c1cccc2ccccc12 [12n]" measured_result=105
compound="COc1ccc(S(=O)(=O)NCCNc2nccc(-n3cnc4ccccc43)n2)cc1 [12f]" measured_result=94.6

Take each entry in turn and give its activity at 10 µM.
1. O=S(=O)(NCCCNc1nccc(-n2cnc3ccccc32)n1)c1ccc(Cl)cc1 [12j]
2. O=S(=O)(NCCCNc1nccc(-n2cnc3ccccc32)n1)c1ccc(C(F)(F)F)cc1 [12l]

## Result
124
43.8

---

SYSTEM UNDER TEST: V600EBRAF (Homo sapiens, UniProt P15056, V600E)
Construct: purchased Reaction Biology Corp. (Kinase HotSpot service)
Sequence (P15056 whole entry V600E): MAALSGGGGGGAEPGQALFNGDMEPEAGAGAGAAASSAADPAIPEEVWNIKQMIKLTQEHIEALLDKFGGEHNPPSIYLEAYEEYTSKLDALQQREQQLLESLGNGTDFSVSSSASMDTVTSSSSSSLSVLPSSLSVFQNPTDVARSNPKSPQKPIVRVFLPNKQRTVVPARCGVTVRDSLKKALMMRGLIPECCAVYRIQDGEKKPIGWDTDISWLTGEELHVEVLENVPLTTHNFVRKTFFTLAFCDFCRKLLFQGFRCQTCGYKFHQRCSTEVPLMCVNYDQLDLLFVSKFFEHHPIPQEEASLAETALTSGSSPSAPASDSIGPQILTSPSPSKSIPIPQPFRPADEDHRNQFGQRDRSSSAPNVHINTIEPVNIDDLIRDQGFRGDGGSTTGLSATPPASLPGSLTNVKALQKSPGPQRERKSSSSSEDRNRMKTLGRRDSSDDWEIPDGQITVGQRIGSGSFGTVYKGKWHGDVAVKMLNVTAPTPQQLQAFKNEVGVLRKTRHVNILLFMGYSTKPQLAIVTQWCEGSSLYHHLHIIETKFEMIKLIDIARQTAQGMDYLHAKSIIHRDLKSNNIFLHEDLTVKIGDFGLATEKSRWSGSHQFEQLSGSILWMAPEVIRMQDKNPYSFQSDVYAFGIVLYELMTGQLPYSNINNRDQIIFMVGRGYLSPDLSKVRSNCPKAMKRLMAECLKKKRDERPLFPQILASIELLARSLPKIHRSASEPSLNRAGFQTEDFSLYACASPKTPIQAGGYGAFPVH
EXPERIMENT DESCRIPTION: Reaction Biology kinase HotSpot enzyme assay
Type: biochemical
CONDITION LABEL: single dose 1 µM; 1 µM ATP; mean ± S.D. of two experiments; read-out: % Inhibition at 1 µM over V600EBRAF
Procedure: Reaction Biology Corp. Kinase HotSpotTM service Proﬁler Express for IC50 measurement. Assay protocol: In a ﬁnal reaction volume of 25 μL, kinase (5–10 mU) is incubated with 25 mM Tris pH 7.5, 0.02 mM EGTA, 0.66 mg/mL myelin basic protein, 10 mM magnesium acetate and [γ33P-ATP] (speciﬁc activity approx. 500 cpm/pmol, concentration as required). The reaction is initiated by the addition of the Mg-ATP mix. […]
Quick rule: inhibition at 1 µM of at least 70% means T, below that means F.

Use the examples below as a reference point.
molecule="O=S(=O)(NCCCNc1nccc(-n2cnc3ccccc32)n1)c1ccc(Cl)cc1 [12j]" system_under_test="V600EBRAF (Homo sapiens, UniProt P15056, V600E)" cat=T
molecule="O=S(=O)(NCCCNc1nccc(-n2cnc3ccccc32)n1)c1ccc(C(F)(F)F)cc1 [12l]" system_under_test="V600EBRAF (Homo sapiens, UniProt P15056, V600E)" cat=T
molecule="COc1ccc(S(=O)(=O)NCCNc2nccc(-n3cnc4ccccc43)n2)cc1 [12f]" system_under_test="V600EBRAF (Homo sapiens, UniProt P15056, V600E)" cat=F
molecule="COc1ccc(S(=O)(=O)NCCCNc2nccc(-n3cnc4ccccc43)n2)cc1 [12m]" system_under_test="V600EBRAF (Homo sapiens, UniProt P15056, V600E)" cat=F
molecule="O=S(=O)(NCCCNc1nccc(-n2cnc3ccccc32)n1)c1ccccc1 [12h]" system_under_test="V600EBRAF (Homo sapiens, UniProt P15056, V600E)" cat=F

## Task Quick check: does O=S(=O)(NCCCNc1nccc(-n2cnc3ccccc32)n1)c1ccc(Br)cc1 [12k] have inhibition at 1 µM greater than or equal to 70%?
## Result T

## Task Quick check: does O=S(=O)(NCCCNc1nccc(-n2cnc3ccccc32)n1)c1cccc2ccccc12 [12n] have inhibition at 1 µM greater than or equal to 70%?
## Result F

---

Field: inhibition at 1 µM. Provide a value for each of the compounds that follow.
SYSTEM UNDER TEST: V600EBRAF (Homo sapiens, UniProt P15056, V600E)
Construct: purchased Reaction Biology Corp. (Kinase HotSpot service)
EXPERIMENT DESCRIPTION: Reaction Biology kinase HotSpot enzyme assay
Type: biochemical
CONDITION LABEL: single dose 1 µM; 1 µM ATP; mean ± S.D. of two experiments; read-out: % Inhibition at 1 µM over V600EBRAF
One number for each entry, in %.

compound="Cc1ccc(S(=O)(=O)NCCNc2nccc(-n3cnc4ccccc43)n2)cc1 [12g]" measured_quantity="inhibition at 1 µM" measured_result=82
compound="O=S(=O)(NCCNc1nccc(-n2cnc3ccccc32)n1)c1ccc(F)cc1 [12b]" measured_quantity="inhibition at 1 µM" measured_result=75
compound="O=S(=O)(NCCCNc1nccc(-n2cnc3ccccc32)n1)c1ccc(F)cc1 [12i]" measured_quantity="inhibition at 1 µM" measured_result=98
compound="O=S(=O)(NCCNc1nccc(-n2cnc3ccccc32)n1)c1ccc(C(F)(F)F)cc1 [12e]" measured_quantity="inhibition at 1 µM" measured_result=98

API: the following record is the query input.
Entry O=S(=O)(NCCNc1nccc(-n2cnc3ccccc32)n1)c1ccccc1 [12a] under V600EBRAF (Homo sapiens, UniProt P15056, V600E) had inhibition at 1 µM of 30

---

Tested on: OVCAR-8
EXPERIMENT DESCRIPTION: NCI 60 cell line screen
Type: cell-based
CONDITION LABEL: Homo sapiens; OVCAR-8, Ovarian Cancer; read-out: Percent growth
Protocol: Anticancer profiling over a panel of 60 cancer cell lines was carried out at the National Cancer Institute (NCI), Bethesda, Maryland, USA, https://dtp.cancer.gov/discovery_development/nci-60/methodology.htm (Last visit 22 September 2021), using the standard procedure (detailed procedure is located in the Supplementary Information page 50 s). NCI standard procedure for 60 cell lines assay […] Three dose response parameters are calculated for each experimental agent. […] (TGI) is calculated from Ti = Tz.
MEASURED QUANTITY: activity at 10 µM (%)
Answers are plain numbers, in %.

Look over these answered cases.
compound="O=S(=O)(NCCCNc1nccc(-n2cnc3ccccc32)n1)c1cccc2ccccc12 [12n]" measured_quantity="activity at 10 µM" measured_result=82.5
compound="Cc1ccc(S(=O)(=O)NCCNc2nccc(-n3cnc4ccccc43)n2)cc1 [12g]" measured_quantity="activity at 10 µM" measured_result=79.8
compound="O=S(=O)(NCCNc1nccc(-n2cnc3ccccc32)n1)c1ccc(Cl)cc1 [12c]" measured_quantity="activity at 10 µM" measured_result=102
compound="O=S(=O)(NCCCNc1nccc(-n2cnc3ccccc32)n1)c1ccc(C(F)(F)F)cc1 [12l]" measured_quantity="activity at 10 µM" measured_result=60

Take each entry in turn and give its activity at 10 µM.
1. COc1ccc(S(=O)(=O)NCCNc2nccc(-n3cnc4ccccc43)n2)cc1 [12f]
2. O=S(=O)(NCCCNc1nccc(-n2cnc3ccccc32)n1)c1ccc(Br)cc1 [12k]
3. O=S(=O)(NCCCNc1nccc(-n2cnc3ccccc32)n1)c1ccc(Cl)cc1 [12j]
4. O=S(=O)(NCCNc1nccc(-n2cnc3ccccc32)n1)c1ccc(C(F)(F)F)cc1 [12e]
5. O=S(=O)(NCCCNc1nccc(-n2cnc3ccccc32)n1)c1ccc(F)cc1 [12i]

## Result
1: 91.5; 2: 82.5; 3: 90.8; 4: 63.5; 5: 62.5
